Where do these numbers come from? They come from the Human Domainome abundance scans (Beltran et al. 2025).

B1: Unconventional myosin-Ie, residues 1051 to 1108; numbered along this chain, Q12965 (parent)
chain: PQVPQCKALYAYDAQDTDELSFNANDIIDIIKEDPSGWWTGRLRGKQGLFPNNYVTKI

# Variants of: B1
# method-summary: abundance fitness (aPCA) (normalised: wild type 0, dead -1); higher = more abundant; growth selection in yeast, the domain comes from the species named
# test-settings: Homo sapiens
Reported abundance fitness values for a set of variants

Examples with answers:
INSERT INTO results (chain_sequence, result) VALUES
  ('PQVPQCKALYAYDAQDTRELSFNANDIIDIIKEDPSGWWTGRLRGKQGLFPNNYVTKI [D18R]', -0.065),
  ('PQVPQCKALYAYDGQDTDELSFNANDIIDIIKEDPSGWWTGRLRGKQGLFPNNYVTKI [A14G]', -0.173),
  ('PQVPQCKALYAYDAQFTDELSFNANDIIDIIKEDPSGWWTGRLRGKQGLFPNNYVTKI [D16F]', -0.19),
  ('PQVPQCKALYAYDAADTDELSFNANDIIDIIKEDPSGWWTGRLRGKQGLFPNNYVTKI [Q15A]', -0.087),
  ('PQVPQCKALYAYDAQDTDELSFNANDIIDIIKEDPSGWWTGRLRGKVGLFPNNYVTKI [Q47V]', 0.041),
  ('PQVPQCKALYAYDAQDTDELSFNANDIIDIIKEDPSGWWTGRLRGKQGLFPNNYVRKI [T56R]', -0.097);

**Query** # query: abundance fitness of entry PQVPQCKALYAYDAQDTDELSFNANDIIDIIKEDPSGWWTGRLRGKQALFPNNYVTKI [G48A]
**Result** -0.171

**Query** # query: abundance fitness of entry PQVPQCKALYAYDAQDTDELSFNANDIIDIIKEDPSGWWTGRLRGKQGLFPNNIVTKI [Y54I]
**Result** -0.296

**Query** # query: abundance fitness of entry PQVPQCKALYAYDAQDTDELSFNANDIIDIIKEDPSGWWTGRLRGKQGLFPNNYVTNI [K57N]
**Result** -0.143

**Query** # query: abundance fitness of entry PQVPQCKALQAYDAQDTDELSFNANDIIDIIKEDPSGWWTGRLRGKQGLFPNNYVTKI [Y10Q]
**Result** -0.054

**Query** # query: abundance fitness of entry PQVPQCKALYAYDAQDTDELSFNSNDIIDIIKEDPSGWWTGRLRGKQGLFPNNYVTKI [A24S]
**Result** -0.108

**Query** # query: abundance fitness of entry PPVPQCKALYAYDAQDTDELSFNANDIIDIIKEDPSGWWTGRLRGKQGLFPNNYVTKI [Q2P]
**Result** -0.062

**Query** # query: abundance fitness of entry PQVPQCKALYAYDAQDTDGLSFNANDIIDIIKEDPSGWWTGRLRGKQGLFPNNYVTKI [E19G]
**Result** -0.018

**Query** # query: abundance fitness of entry PQVPQCKALYAYDAQDTDELSFNANDIIDIIKFDPSGWWTGRLRGKQGLFPNNYVTKI [E33F]
**Result** -0.376

**Query** # query: abundance fitness of entry PQVPQCKALYAYDAQDTDELSFNANDIIDIIKEDPSGWWTGGLRGKQGLFPNNYVTKI [R42G]
**Result** -0.125
